- test_details: Solubility of agomelatine in water or aqueous isopropanol (IPA)
- Type: physicochemical
- test_conditions: 0 (water), 32° C.
assay_endpoint: solubility

>>> endpoint_result("COc1ccc2cccc(CCNC(C)=O)c2c1")
"400 µg/mL"

These entries and their values trace back to patent US20160184246A1.
